# target desc: h-GABA-A α5β3γ2 (Homo sapiens, UniProt P18507+P31644)
# assay comment: Two-electrode voltage clamp electrophysiology in Xenopus laevis oocytes expressing GABAA receptors, modulation of GABA EC20 current
# Assay type: cell-based
# Set-up: host or cells: Xenopus laevis oocytes micro-injected with RNA transcripts of the subunits
# conditions used: % modulation of GABA EC20 = 100*(Fold increase-1); Table 1
observable: Efficacy (GABA) %
Answer format: number, then unit.

Cc1ccc(-c2noc(C)c2Cn2ncc(N3CC4(COC4)C3)cc2=O)cn1: 181%
Cc1ccc(-c2noc(C)c2Cn2ncc(N(C)C3CC3)cc2=O)cn1: 108%
COc1ccccc1C1CCN(c2cnn(Cc3c(-c4ccc(C)nc4)noc3C)c(=O)c2)CC1: 76%
Cc1onc(-c2ccc(Cl)cn2)c1Cn1ncc(N2CC3(C2)CN(C2CC2)C3)cc1=O: 87%
Cc1ccc(-c2noc(C)c2Cn2ncc(N3CC4(C[C@H](OC(F)F)CO4)C3)cc2=O)cn1: 160%

Shift focus to the following entry.
For this compound ( Cc1ccc(-c2noc(C)c2Cn2ncc(N3C[C@H]4COC[C@H]4C3)cc2=O)cn1 ), measured Efficacy (GABA) % is 167%

---

# target desc: h-GABA-A α5β3γ2 (Homo sapiens, UniProt P18507+P31644)
# assay comment: Two-electrode voltage clamp electrophysiology in Xenopus laevis oocytes expressing GABAA receptors, modulation of GABA EC20 current
# Format: cell-based
# Set-up: host or cells: Xenopus laevis oocytes micro-injected with RNA transcripts of the subunits
# conditions used: test compound at approx. 30 fold its Ki, GABA at EC20; Table 1
observable: Fold increase h-GABA-A α5β3γ2 oocyte

Use these answered entries as a reference point.
Cc1ccc(-c2noc(C)c2Cn2ncc(N3CC(OC4CC4)C3)cc2=O)nn1 [Example 239]: 1.67
COc1cc(-c2cnn(Cc3c(-c4ccc(C)nc4)noc3C)c(=O)c2)cnc1OC [Example 179]: 2.33

For this compound ( CCn1cc(-c2cnn(Cc3c(-c4ccc(C)nc4)noc3C)c(=O)c2)cn1 [Example 155] ), measured Fold increase h-GABA-A α5β3γ2 oocyte is 2.33

For this compound ( COC1(C)CCN(c2cnn(Cc3c(-c4ccc(Cl)nc4)noc3C)c(=O)c2)CC1 [Example 262] ), measured Fold increase h-GABA-A α5β3γ2 oocyte is 3.16

For this compound ( Cc1onc(-c2ccc(Cl)nc2)c1Cn1ncc(N2CC3(CCOCC3)C2)cc1=O [Example 257] ), measured Fold increase h-GABA-A α5β3γ2 oocyte is 2.08

---

# target desc: h-GABA-A α5β3γ2 (Homo sapiens, UniProt P18507+P31644)
# assay comment: [3H]flumazenil competition binding assay, membranes of HEK293 cells expressing GABAA receptors
# conditions used: displacement of [3H]-Flumazenil 0.5 nM, HEK293 cells expressing human receptors, mean of two determinations; Table 1
observable: pKi
Schema: pKi number; meaning minus log10 of the concentration expressed in molar units.

Use these answered entries as a reference point.
Cc1ccc(-c2noc(C)c2Cn2ncc(-c3cncc(Cl)c3)cc2=O)cn1: 8.08
Cc1ccc(-c2noc(C)c2Cn2ncc(N3CC[C@H](O)C3)cc2=O)cn1: 8.07
CCOC(=O)C1CCN(c2cnn(Cc3c(-c4ccc(C)nc4)noc3C)c(=O)c2)CC1: 7.58
Cc1ccc(-c2noc(C)c2Cn2ncc(N3CC(OC(C)(C)C(F)(F)F)C3)cc2=O)nn1: 8.52
Cc1ccc(-c2noc(C)c2Cn2ncc(-c3ccnc(C)c3)cc2=O)cn1: 8.21
Cc1ccc(-c2noc(CF)c2Cn2ncc(N3CC4(CCC(F)CO4)C3)cc2=O)nn1 (single isomer, unassigned): 7.23
Cc1ccc(-c2noc(C)c2Cn2ncc(N3CC(Oc4ccc(F)cc4)C3)cc2=O)cn1: 7.73

For this compound ( Cc1onc(-c2ccc(Cl)nc2)c1Cn1ncc(N2CCC3(CC2)COC3)cc1=O ), measured pKi is 7.46

---

# target desc: h-GABA-A α5β3γ2 (Homo sapiens, UniProt P18507+P31644)
# assay comment: Two-electrode voltage clamp electrophysiology in Xenopus laevis oocytes expressing GABAA receptors, modulation of GABA EC20 current
# Type: cell-based
# Parameters: host or cells: Xenopus laevis oocytes micro-injected with RNA transcripts of the subunits
# conditions used: % modulation of GABA EC20 = 100*(Fold increase-1); Table 1
observable: Efficacy (GABA) % (%)
Report only the number, with the unit % understood.

Cc1onc(-c2ccc(Cl)nc2)c1Cn1ncc(N2CC3(CCCCO3)C2)cc1=O: 82
Cc1ccc(-c2noc(C)c2Cn2ncc(N3CC4(CC(F)CCO4)C3)cc2=O)cn1 (single isomer, unassigned) [Example 273]: 126
Cc1ccc(-c2noc(C)c2Cn2ncc(N3CCC(n4c(C)nnc4C)CC3)cc2=O)cn1: 175
Cc1onc(-c2ccc(Cl)cn2)c1Cn1ncc(N2C[C@@H](C)O[C@@H](C)C2)cc1=O: 94
Cc1cc(-c2noc(C)c2Cn2ncc(N3CC(OCC4CC4)C3)cc2=O)no1: 107

For this compound ( COC1CN(c2cnn(Cc3c(-c4ccc(C(F)(F)F)nn4)noc3C)c(=O)c2)C1 ), measured Efficacy (GABA) % is 105

For this compound ( Cc1onc(-c2ccc(Cl)nc2)c1Cn1ncc(N2CCN(c3ccnnc3)CC2)cc1=O ), measured Efficacy (GABA) % is 205

For this compound ( CCOC1CN(c2cnn(Cc3c(-c4cnc(C)c(F)c4)noc3C)c(=O)c2)C1 ), measured Efficacy (GABA) % is 108

For this compound ( Cc1ccc(-c2noc(CF)c2Cn2ncc(N3C[C@@H](C)O[C@@H](C)C3)cc2=O)cn1 ), measured Efficacy (GABA) % is 173

---

# target desc: h-GABA-A α5β3γ2 (Homo sapiens, UniProt P18507+P31644)
# assay comment: Two-electrode voltage clamp electrophysiology in Xenopus laevis oocytes expressing GABAA receptors, modulation of GABA EC20 current
# Assay type: cell-based
# Design: host or cells: Xenopus laevis oocytes micro-injected with RNA transcripts of the subunits
# conditions used: test compound at approx. 30 fold its Ki, GABA at EC20; Table 1
observable: Fold increase h-GABA-A α5β3γ2 oocyte

Use these answered entries as a reference point.
Cc1ccc(-c2noc(C)c2Cn2ncc(N3CCC(n4ccnc4C)CC3)cc2=O)cn1: 2.42
COC1CN(c2cnn(Cc3c(-c4cc(C)on4)noc3C)c(=O)c2)C1: 1.62
Cc1ccc(-c2noc(C)c2Cn2ncc(N3CC4(COC4)C3)cc2=O)cn1: 2.81
Cc1onc(-c2ccc(Cl)nc2)c1Cn1ncc(N2CCC3(CCCO3)CC2)cc1=O: 2.26
Cc1ccc(-c2noc(C)c2Cn2ncc(N3CCC4(CC3)COC4)cc2=O)cn1: 2.07

For this molecule ( CCc1cc(-c2cnn(Cc3c(-c4ccc(C)nc4)noc3C)c(=O)c2)ccn1 ), measured Fold increase h-GABA-A α5β3γ2 oocyte is 1.98

For this molecule ( Cc1ccc(-c2noc(C)c2Cn2ncc(N3CC(OC(C)(C)C(F)(F)F)C3)cc2=O)nn1 ), measured Fold increase h-GABA-A α5β3γ2 oocyte is 1.93

For this molecule ( CCOC1CN(c2cnn(Cc3c(-c4ccc(C)nc4)noc3C)c(=O)c2)C1 ), measured Fold increase h-GABA-A α5β3γ2 oocyte is 2.34

---

# target desc: h-GABA-A α5β3γ2 (Homo sapiens, UniProt P18507+P31644)
# assay comment: [3H]flumazenil competition binding assay, membranes of HEK293 cells expressing GABAA receptors
# conditions used: displacement of [3H]-Flumazenil 0.5 nM, HEK293 cells expressing human receptors, mean of two determinations; Table 1
Some molecules, each annotated with its measured Ki.
Report only the number, with the unit nM understood.

Use these answered entries as a reference point.
Cc1ccc(-c2noc(C)c2Cn2ncc(N3CC4(CC(OC(F)F)C4)C3)cc2=O)nn1 [Example 315]: 4
Cc1ccc(-c2nocc2Cn2ncc(N3CCO[C@@H](C)C3)cc2=O)cn1 [Example 91]: 21.7
CC1(C(=O)N2CCN(c3cnn(Cc4c(-c5ccc(Cl)cn5)noc4C4CC4)c(=O)c3)CC2)CC1 [Example 26]: 28.4
CCOC1CN(c2cnn(Cc3c(-c4ccc(Cl)nc4)noc3C)c(=O)c2)C1 [Example 220]: 25.3
Cc1onc(-c2ccc(Cl)cn2)c1Cn1ncc(N2CC3(CCCO3)C2)cc1=O [Example 144]: 3.2

For this molecule ( CCOC1CN(c2cnn(Cc3c(-c4ccc(Cl)nc4)noc3C)c(=O)c2Cl)C1 [Example 272] ), measured Ki is 26.4

For this molecule ( Cc1ccc(-c2noc(C)c2Cn2ncc(N3C[C@H](C)O[C@@H](C)C3)cc2=O)cn1 (single isomer, unassigned) [Example 29] ), measured Ki is 1.4

For this molecule ( Cc1onc(-c2ccc(Cl)cn2)c1Cn1ncc(N2C[C@@H](C)O[C@@H](C)C2)cc1=O [Example 13] ), measured Ki is 0.7

For this molecule ( Cc1onc(-c2ccc(Cl)nc2)c1Cn1ncc(N2C[C@@H](O)[C@H]2C)cc1=O [Example 289] ), measured Ki is 2.2

For this molecule ( Cc1ccc(-c2noc(C)c2Cn2ncc(N3CC4(C[C@H](OC(F)F)CO4)C3)cc2=O)nn1 [Example 246] ), measured Ki is 3.4

For this molecule ( Cc1ccc(-c2noc(C)c2Cn2ncc(N3CCC4(CC3)CC(F)CCO4)cc2=O)nn1 (single isomer, unassigned) [Example 327] ), measured Ki is 3.6

For this molecule ( Cc1ncc(-c2noc(C)c2Cn2ncc(N(C)C)cc2=O)cc1F [Example 102] ), measured Ki is 13.1

For this molecule ( Cc1ccc(-c2noc(C)c2Cn2ncc(N3CC4(CCOCC4)C3)cc2=O)cn1 [Example 199] ), measured Ki is 19.4

For this molecule ( Cc1onc(-c2ccc(Cl)nc2)c1Cn1ncc(N2CCC3(CCCO3)CC2)cc1=O [Example 256] ), measured Ki is 45.4

For this molecule ( Cc1onc(-c2ccc(F)cc2)c1Cn1ncc(N2CCOCC2)cc1=O [Example 11] ), measured Ki is 7.9
